Every entry's value here was drawn from the Human Domainome abundance scans (Beltran et al. 2025).

B1: Segment polarity protein dishevelled homolog DVL-3, residues 2 to 81; numbered along this chain, Q92997 (parent)
chain: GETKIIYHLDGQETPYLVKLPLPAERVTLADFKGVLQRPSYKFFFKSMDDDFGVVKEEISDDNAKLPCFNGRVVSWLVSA

Variants of: B1
Assay: abundance fitness (aPCA) (normalised: wild type 0, dead -1); higher = more abundant; growth selection in yeast, the domain comes from the species named
Settings: Homo sapiens
Class assignment keyed on abundance fitness, ranges bucket 1 (below -0.5), bucket 2 (-0.5 to below -0.3), bucket 3 (-0.3 or more)

[
  {
    "mutant": "A30T",
    "assigned.label": "bucket 1"
  },
  {
    "mutant": "C68H",
    "assigned.label": "bucket 3"
  },
  {
    "mutant": "K33G",
    "assigned.label": "bucket 1"
  },
  {
    "mutant": "I59F",
    "assigned.label": "bucket 1"
  },
  {
    "mutant": "K33D",
    "assigned.label": "bucket 1"
  },
  {
    "mutant": "K65P",
    "assigned.label": "bucket 3"
  },
  {
    "mutant": "T28R",
    "assigned.label": "bucket 2"
  },
  {
    "mutant": "A24I",
    "assigned.label": "bucket 2"
  },
  {
    "mutant": "F44R",
    "assigned.label": "bucket 1"
  },
  {
    "mutant": "S75L",
    "assigned.label": "bucket 2"
  },
  {
    "mutant": "K42W",
    "assigned.label": "bucket 1"
  },
  {
    "mutant": "E25H",
    "assigned.label": "bucket 3"
  },
  {
    "mutant": "F52K",
    "assigned.label": "bucket 3"
  },
  {
    "mutant": "D50W",
    "assigned.label": "bucket 2"
  },
  {
    "mutant": "P67E",
    "assigned.label": "bucket 2"
  },
  {
    "mutant": "K65M",
    "assigned.label": "bucket 3"
  },
  {
    "mutant": "Q37C",
    "assigned.label": "bucket 3"
  },
  {
    "mutant": "F69N",
    "assigned.label": "bucket 2"
  },
  {
    "mutant": "S47N",
    "assigned.label": "bucket 3"
  },
  {
    "mutant": "F69V",
    "assigned.label": "bucket 3"
  },
  {
    "mutant": "P23V",
    "assigned.label": "bucket 1"
  },
  {
    "mutant": "Q37W",
    "assigned.label": "bucket 2"
  }
]
